# System: SK-MEL-28 melanoma
# testDescription: NCI tumour cell line growth inhibition, 48 h
valueKind: GI50

Examples with their reported GI50 follow.
CN(C)c1ccc(/C=C(\C#N)c2cc3ccccc3[nH]2)cc1	2630 nM
COc1cc2c(cc1OC)C(C(CCCCCC(CCC(C)C)C1NCCc3cc(OC)c(OC)cc31)CCC(C)C)NCC2 (stereo not given)	1850 nM
Cc1ccc(/C=N/NC(=O)c2ccccc2Oc2ccccc2)o1	36600 nM

Problem: State the recorded GI50 for this entry: Cc1ccc(C[As+](c2ccccc2)(c2ccccc2)c2ccccc2)cc1
Result: 927 nM

Problem: Similarly, CC12OC(CC(O)C1O)n1c3ccccc3c3c4c(c5c6ccccc6n2c5c31)C(=O)N(CCN1CCOCC1)C4=O (stereo not given) ?
Result: 2160 nM

* * *

# Tested on: DMS 114 small cell lung
# testDescription: NCI tumour cell line growth inhibition, 48 h
Listed here are compounds together with their documented TGI.
Answer with a number only, understood to be in µM.

CN(C)[C@@H]1C(=O)C(C(=O)NCNc2nc3n[nH]nc3c(=O)[nH]2)=C(O)[C@@]2(O)C(=O)C3=C(O)c4c(O)cccc4[C@@](C)(O)[C@H]3C[C@@H]12	13.8
Cc1cccc(NC(=O)C(=O)C(C2OC(=O)c3ccccc32)[N+](=O)[O-])c1C (configuration not stated)	10.3
CC(C)c1oc(=O)cc2c1C(O)C1OC(=O)C3(C)C(O)C4OC4C2(C)C13 (configuration not stated)	6.31
CCN(CC)CCNc1ccc2ncn3c4ccc(OC)cc4c(=O)c1c23	25.2

Problem: State the recorded TGI for this entry: Cc1cc(O)c2c(c1)C(=O)c1c(c(O)cc(O)c1-c1c(O)cc(O)c3c1C(=O)c1cc(C)cc(O)c1C3=O)C2=O
Result: 63

Problem: Similarly, C/C=C(\N=C=S)C(=O)OC1C(COC(C)=O)OC([C@]2(O)CC(=O)C(=N)C(C(=O)O)=C2O)C(O)C1OC1CC(OC)C(O)([C@@H](C)OC(=O)[C@@H](C)CC)C(C)O1 (some centres not stated) ?
Result: 14.9

* * *

# Tested on: HOP-62 NSCLC
# testDescription: NCI tumour cell line growth inhibition, 48 h
Listed here are molecules together with their documented TGI.
Answer with a number only, understood to be in µM.

Examples with their reported TGI follow.
CC12OC(CC(O)C1O)n1c3ccccc3c3c4c(c5c6ccccc6n2c5c31)C(=O)N(CCN1CCOCC1)C4=O (stereo not given)	4.22
CN1CCN(c2cc3nc(-c4ccc(Cl)cc4)[nH]c3cc2F)CC1	30.6

The record that follows has no TGI shown yet.
Problem: State the recorded TGI for this entry: CN(C)c1ccc(C=Nc2ccc(-c3nc4ccccc4s3)cc2)cc1
Result: 82.8

* * *

Listed here are compounds together with their documented log10 TGI.
# Tested on: HCT-15 colon
# testDescription: NCI tumour cell line growth inhibition, 48 h
Heads up: the numbers are on a log10 scale; they represent TGI in µM.

CN(C)NC1=C([N+](=O)[O-])C=NN(c2ccccc2)C1	0.49
Cc1ccc(N)cc1[As]=[As]c1cc(N)ccc1C (stereo not given)	0.35
CC1=CC(=O)N(c2cccc3c(N4C(=O)C=C(C)C4=O)cccc23)C1=O	1.01
COc1cc2c(cc1OC)C(C(CCCCCC(CCC(C)C)C1NCCc3cc(OC)c(OC)cc31)CCC(C)C)NCC2 (stereo not given)	-0.07
Cc1cccc(NC(=O)C(=O)C(C2OC(=O)c3ccccc32)[N+](=O)[O-])c1C (stereo not given)	1.29

Problem: State the recorded log10 TGI for this entry: CN1CCC2(CC1)N=C(SCC(=O)Nc1cnc3ccccc3c1)C(c1ccc(Br)cc1)=N2
Result: 0.58

Problem: Similarly, Brc1ccccc2cc(-c3ccccc3)nc1-2 ?
Result: 1.23

Problem: Similarly, CC(=Nc1ccc(N(C)C)cc1)c1ccccc1 ?
Result: 1.58
